- Tested on: HEK-293T
- ASSAY DETAILS: Incucyte cell viability with HEK293T; further: unitless GR value; below 1 slowed growth and below 0 cell loss
- Type: toxicity, cell-based
- PARTICULARS: human, 6 h, 10 µM, compound concentration 10 uM, replicate number 2, timepoint 6 hours
Documented Growth Rate across a set of molecules
Just the number, please.

Record excerpt, results attached:
Query Cl.Clc1ccc2nsnc2c1NC1=NCCN1 [TIZANIDINE HYDROCHLORIDE] yields Growth Rate of 0.88

Summary for this molecule, `COc1ccccc1N1CCN(C[C@@H](C(=O)NC(C)(C)C)c2ccccc2)CC1.Cl.Cl` : Growth Rate is 0.54

The molecule listed as `CCN1/C(=C/C(C)=O)Sc2ccc(OC(C)=O)cc21` shows Growth Rate equal to 0.44

Reported Growth Rate of `O=C(Nc1cc(-c2cn[nH]c2)ccc1N1CCOCC1)c1ccc(-c2ccc3ncccc3c2)o1` : 0.26

Next:
The reported Growth Rate of the molecule Cl.Cl.OCCOCCN1CCN(C(c2ccccc2)c2ccc(Cl)cc2)CC1 (centres undefined) [HYDROXYZINE HYDROCHLORIDE] was 0.15

Sample `NC(=O)c1cccc(-c2cc(Nc3ccc(OC(F)(F)F)cc3)ncn2)c1` ; Growth Rate observed: 0.03

----------
- System: HEK-293T
- ASSAY DETAILS: Incucyte cell viability with HEK293T; further: unitless GR value; below 1 slowed growth and below 0 cell loss
- Format: toxicity, cell-based
- PARTICULARS: human, 18 h, 10 µM, compound concentration 10 uM, replicate number 1, timepoint 18 hours
READOUT LABEL: Growth Rate

`CN[C@@H]1C[C@H]2O[C@@](C)([C@@H]1OC)n1c3ccccc3c3c4c(c5c6ccccc6n2c5c31)C(=O)NC4` yielded Growth Rate of 0.33

The reported value for `O=C1NCc2ccc3c(-c4cccc(Cl)c4)c[nH]c3c21` in terms of Growth Rate is -0.21

Continuing:
Memo: CCC(C)n1ncn(-c2ccc(N3CCN(c4ccc(OC[C@@H]5CO[C@@](Cn6cncn6)(c6ccc(Cl)cc6Cl)O5)cc4)CC3)cc2)c1=O.CCC(C)n1ncn(-c2ccc(N3CCN(c4ccc(OC[C@H]5CO[C@](Cn6cncn6)(c6ccc(Cl)cc6Cl)O5)cc4)CC3)cc2)c1=O (stereo partly drawn) , reported Growth Rate: 0.44

----------
- Test system: Fibroblast
- ASSAY DETAILS: Incucyte cell viability with human fibroblast; further: unitless GR value; below 1 slowed growth and below 0 cell loss
- Type: toxicity, cell-based
- PARTICULARS: 0 h, 10 µM, compound concentration 10 uM, replicate number 2, timepoint 0 hours
Examples of compounds with documented Growth Rate follow.

// worked examples, Growth Rate included
Lab note: measured Growth Rate of `CCCCC/C=C\C/C=C\C/C=C\C/C=C\CCCC(=O)NCC(=O)O` was 0.25

compound CC(C)NCC(O)COc1cccc2[nH]ccc12 (centres undefined) , Growth Rate observed: -0.46

Entry `C[C@H](N)COC(=O)[C@@H](CCCCN)NC(=O)Cc1c(-c2ccc3ccccc3c2)[nH]c2c1ccc1ccccc12` ; Growth Rate = 0.37

The compound listed as Cl.Clc1ccc2nsnc2c1NC1=NCCN1 [TIZANIDINE HYDROCHLORIDE] shows Growth Rate equal to 0.25

New cases:
Quick note, Growth Rate for CCCCCC(O)/C=C/[C@H]1C(=O)CC(O)C1C/C=C\CCCC(=O)O (some centres undefined) landed at -0.28

The reported Growth Rate of the compound `CCC(=O)NCC[C@@H]1CCc2ccc3c(c21)CCO3` was 0.17

In plain terms, `Cc1c(C(=O)NN2CCCCC2)nn(-c2ccc(Cl)cc2Cl)c1-c1ccc(Cl)cc1` has a documented Growth Rate of 0.97

Please fill in: Growth Rate reported for CCCN1CCC[C@@H]2Cc3n[nH]cc3C[C@H]21.Cl [QUINPIROLE HYDROCHLORIDE] = 0.29

The reported Growth Rate of the compound `Cc1cc(C)cc([C@H]2c3cc(C)ccc3NC(=O)CN2C(=O)c2ccc(Br)s2)c1` was 0.88

----------
Each item that follows carries a reported Growth Rate.
- Tested on: Fibroblast
- ASSAY DETAILS: Incucyte cell viability with human fibroblast; further: unitless GR value; below 1 slowed growth and below 0 cell loss
- Type: toxicity, cell-based
- PARTICULARS: 6 h, 10 µM, compound concentration 10 uM, replicate number 1, timepoint 6 hours
Answer field: number only, no words.

Examples with answers:
Reading of Growth Rate for `Cc1cnc(-c2cc(N3CCN(C(=O)CCS(C)(=O)=O)CC3)ncc2Cl)c(C)c1` with Fibroblast: 0.66

The recorded Growth Rate with Fibroblast for `CS(=O)(=O)c1ccc(C(=O)Nc2ccc(Cl)c(-c3ccccn3)c2)c(Cl)c1` was 0.27

Reported Growth Rate (Fibroblast) for entry `CC[C@H](Nc1ncnc2[nH]cnc12)c1nc2cccc(F)c2c(=O)n1-c1ccccc1` is -0.73

The reported Growth Rate value, Fibroblast, for `C[C@H](N)COC(=O)[C@@H](CCCCN)NC(=O)Cc1c(-c2ccc3ccccc3c2)[nH]c2c1ccc1ccccc12` reads 0.67

The molecule CN[C@@H]1CCc2[nH]c3ccc(C(N)=O)cc3c2C1.O.O=C(O)CCC(=O)O [FROVATRIPTAN SUCCINATE] on Fibroblast: Growth Rate was 0.36

GET /values?item= `CCS(=O)(=O)Nc1ccc(Oc2ccc(F)cc2F)c(-c2cn(C)c(=O)c3[nH]ccc23)c1` &system= Fibroblast returns Growth Rate: -0.16

Item: `COc1ccc2c(c1OCc1ccccc1)C[C@@H](C(=O)O)N(C(=O)C(c1ccccc1)c1ccccc1)C2` | System: Fibroblast | Growth Rate: 0.24

Tested on Fibroblast, the item `CC(C)c1c(NC(=O)Nc2ccc(Cl)cc2)c(=O)n(-c2ccccc2)n1C` showed Growth Rate equal to 0.31

Summary line: `COc1cc(Br)c(S(=O)(=O)Nc2ccc(C(F)(F)F)c(O[C@@H]3CCN(C)C3)c2)cc1OC` , Fibroblast, reported Growth Rate = -0.5

Lab note: molecule `CCOC(=O)N[C@@H]1CC[C@@H]2[C@@H](C1)C[C@H]1C(=O)O[C@H](C)[C@H]1[C@H]2/C=C/c1ccc(-c2cccc(F)c2)cn1` tested on Fibroblast; recorded Growth Rate was 0.13

Others:
Growth Rate on Fibroblast for `CCc1nn2c(C)cc(C)nc2c1Cc1ccc(-c2nnc(C3CCNCC3)o2)cc1` is -0.59

# Growth Rate measured on Fibroblast for item `O=C(CCCc1ccccc1)Nc1nc2ccccc2c(=O)s1` = -0.7

// molecule `Cc1ccc(/C(=C\CN2CCCC2)c2ccccn2)cc1` , assay Fibroblast, Growth Rate value: 0.96

Tested on Fibroblast, the item `Cn1cc(C(=O)OCC2CCN(CCNS(C)(=O)=O)CC2)c2ccccc21` showed Growth Rate equal to -0.25

Bench note, Fibroblast: `O=C1NC(Nc2ccccc2)=N/C1=C\c1ccc2c(c1)OCO2` , Growth Rate reads 0.26

Known value: Fibroblast Growth Rate of the molecule `N=C(N)NCCC[C@@H](NC(=O)C(c1ccccc1)c1ccccc1)C(=O)NCc1ccc(CNC(N)=O)cc1.O=C(O)C(F)(F)F.O=C(O)C(F)(F)F` equals 0.44

Bench note, Fibroblast: CCCN1CCC[C@@H]2Cc3n[nH]cc3C[C@H]21.Cl [QUINPIROLE HYDROCHLORIDE] , Growth Rate reads 0.59

The measured Growth Rate that `CCCCCCCCc1ccc(CCC(N)(CO)CO)cc1` showed for Fibroblast is -0.91

----------
- Tested on: HEK-293T
- ASSAY DETAILS: Incucyte cell viability with HEK293T; further: unitless GR value; below 1 slowed growth and below 0 cell loss
- Format: toxicity, cell-based
- PARTICULARS: human, 12 h, 10 µM, compound concentration 10 uM, replicate number 1, timepoint 12 hours
*1 amine or outer side, *2 acyl side, *3 side chain or, on linkers, in order; H or OH if unused. Where a SMILES comes first, the peptide text is derived from it. Bridges are numbered along the chain shown (N, C = ends). X1 = O=C(CCC[*:2])[*:1]
Each entry belongs to exactly one class, chosen by where its Growth Rate falls: bin A (below 0.3), bin B (0.3 to below 0.7), bin C (0.7 or more)

Known results for compounds:
input: Hi there! Could you help me figure out the category for O=C(NCCN1CCC(n2c(=O)[nH]c3cc(Cl)ccc32)CC1)c1ccc(F)cc1 [HALOPEMIDE] please?
output: bin B

input: Quick check: band for Cc1ccc(C(C)(O)c2nc3ccccc3s2)c(C)c1 (stereo unspecified)
output: bin C

input: Which class is correct for the following compound? `N=C(N)NCCC[C@@H](NC(=O)C(c1ccccc1)c1ccccc1)C(=O)NCc1ccc(CNC(N)=O)cc1.O=C(O)C(F)(F)F.O=C(O)C(F)(F)F`
output: bin C

input: For `CC(C)Oc1ccc(Cc2ccc(NC3=NCCN3)cc2)cc1` , which Growth Rate bin applies?
output: bin A

input: Category of `C[C@H]1CN(C[C@H](Cc2ccccc2)C(=O)NCC(=O)O)CC[C@@]1(C)c1cccc(O)c1` :
output: bin C

New cases:
input: Quick check: band for `N[C@](CC1c2ccccc2Oc2ccccc21)(C(=O)O)[C@H]1C[C@@H]1C(=O)O`
output: bin B

input: Band of `COc1cc2nc(N3CCN(C(=O)COc4c(OC)cccc4C(C)C)CC3)nc(N)c2cc1OC.Cl.Cl` ?
output: bin A

input: In plain terms, what class is CC[C@H](C)[C@@H]1NC(=O)[C@H](Cc2ccc(OC)cc2)NC(=O)CCCSC[C@@H](C(=O)N2CCC[C@H]2C(=O)N[C@@H](CC(C)C)C(=O)NCC(N)=O)NC(=O)[C@H](CC(N)=O)NC(=O)[C@H](CCC(N)=O)NC1=O [CARBETOCIN] (Y(Me)IQNCPLG-NH2; linker N-5 via X1) ?
output: bin B

input: Note: place this compound into its band. Item: `O=S(=O)(c1ccccc1)N(CC(F)(F)F)c1ccc(C(O)(C(F)(F)F)C(F)(F)F)cc1`
output: bin B

input: Into which bin does this compound go? `CCCCCCCCCCCCC/C=C/[C@@H](O)[C@@H](N)COP(=O)(O)O`
output: bin A

input: Band of `CC(C)N(CCCCOCC(=O)NS(C)(=O)=O)c1cnc(-c2ccccc2)c(-c2ccccc2)n1` ?
output: bin C

input: For `N#Cc1c(Oc2cccc(OS(=O)(=O)CCCC(F)(F)F)c2)cccc1C(F)(F)F` , which Growth Rate bin applies?
output: bin A

input: Would you mind sorting `CC(C)CC(=O)Nc1cncc(-c2ccc3[nH]nc(-c4nc5c(-c6cccc(F)c6)cncc5[nH]4)c3c2)c1` into the appropriate category?
output: bin A
